# TARGET OF ASSAY: T1, Chymotrypsin, from human pancreas (human, UniProt P17538 19-263)
# T1 construct: purified natural enzyme, bought
# T1 sequence (P17538 19-263): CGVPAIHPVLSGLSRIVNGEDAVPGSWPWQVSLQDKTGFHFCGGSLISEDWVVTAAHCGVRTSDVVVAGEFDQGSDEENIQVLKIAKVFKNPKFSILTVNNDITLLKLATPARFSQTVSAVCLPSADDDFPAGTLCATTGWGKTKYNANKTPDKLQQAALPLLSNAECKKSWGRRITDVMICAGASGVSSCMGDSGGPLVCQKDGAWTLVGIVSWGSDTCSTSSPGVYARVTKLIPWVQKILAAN
# TEST PROTOCOL: enzyme inhibition, pNA substrate
MEASUREMENT TYPE: % inhibition at 100 µM
Note to self: number, then unit, no commentary.

Which % inhibition at 100 µM is reported for this binder? XQTASIPPQTY (HELM PEPTIDE1{[Nle].Q.T.A.S.I.P.P.Q.T.Y.[dP].P}$PEPTIDE1,PEPTIDE1,1:R1-13:R2$$$V2.0; SMILES CCCC[C@@H]1NC(=O)[C@@H]2CCCN2C(=O)[C@H]2CCCN2C(=O)[C@H](Cc2ccc(O)cc2)NC(=O)[C@H]([C@@H](C)O)NC(=O)[C@H](CCC(N)=O)NC(=O)[C@@H]2CCCN2C(=O)[C@@H]2CCCN2C(=O)[C@H]([C@@H](C)CC)NC(=O)[C@H](CO)NC(=O)[C@H](C)NC(=O)[C@H]([C@@H](C)O)NC(=O)[C@H](CCC(N)=O)NC1=O, also called Ex. 109) [Example 109]
13.8%
